B1: HDV Ribozyme (parent)
chain: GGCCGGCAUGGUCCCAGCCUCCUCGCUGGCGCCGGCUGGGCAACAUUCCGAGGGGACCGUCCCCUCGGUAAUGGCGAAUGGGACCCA

variants of: B1; assay: self-cleavage, relative activity (ratio to wild type); higher = more cleavage; co-transcriptional
Please map values of self-cleavage to classes as shown: low class: < 0.2; middle class: ≥ 0.2 and < 0.6; high class: ≥ 0.6

The entry to classify is G31C U72G ; which class holds it?
low class
